System: anti-Malachite Green antibodies
assay name: competitive ELISA: sensitivity and specificity of the produced anti-Malachite Green antibodies
Format: binding, rabbit
recorded conditions: competitive ELISA, produced anti-Malachite Green antibodies
Experimental: In accordance with this embodiment, the diluted antiserum is added to a Malachite Green Chromatic conjugate-coated solid substrate such as the wells of an assay plate, together with a range of concentrations of free Malachite Green Chromatic as a competitor. Following incubation and washing, bound antibody in the wells is determined. […]
experimental readout: Sensitivity (ng/mL)
The reply should contain only the number, in ng/mL.

Check out these entries, answers already filled in.
In [3]: df
Out[3]:
                                smiles_repr  readout_number
0  CN(C)c1ccc(C(=C2C=CC(=[N+](C)C)C=C2)c2ccccc2)cc1               1
1  CN(C)c1ccc(C(c2ccccc2)c2ccc(N(C)C)cc2)cc1             500
2  CN(C)c1ccc(C(c2ccc(N(C)C)cc2)c2ccc(N(C)C)cc2)cc1            5000

Value lookup for Sensitivity; key = CN(C)c1ccc(C(=C2C=CC(=[N+](C)C)C=C2)c2ccc(N(C)C)cc2)cc1
10

Every entry's value here was drawn from patent US20070254323A1.
